These measurements were taken from patent US12286429B2.

IC50 by entry:
target: human plasma kallikrein (Homo sapiens, UniProt P03952); test: Kallikrein inhibition assay utilizing a quenched AMC peptide substrate (FLINT); settings: 11-point, 3-fold serial dilution, top 1 μM; 30 min preincubation; 2 nM kallikrein; 50 μM Z-Gly-Pro-Arg-AMC; kinetic reads over 30 min
Sequence (P03952 391-638 limits assumed): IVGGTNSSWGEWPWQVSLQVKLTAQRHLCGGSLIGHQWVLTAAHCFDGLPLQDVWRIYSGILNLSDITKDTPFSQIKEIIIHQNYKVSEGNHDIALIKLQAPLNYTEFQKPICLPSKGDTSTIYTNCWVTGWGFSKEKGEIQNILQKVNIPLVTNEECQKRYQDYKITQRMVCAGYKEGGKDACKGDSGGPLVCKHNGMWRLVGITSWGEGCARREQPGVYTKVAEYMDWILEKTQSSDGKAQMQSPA
Sequence (P03952 20-390 partner limits assumed): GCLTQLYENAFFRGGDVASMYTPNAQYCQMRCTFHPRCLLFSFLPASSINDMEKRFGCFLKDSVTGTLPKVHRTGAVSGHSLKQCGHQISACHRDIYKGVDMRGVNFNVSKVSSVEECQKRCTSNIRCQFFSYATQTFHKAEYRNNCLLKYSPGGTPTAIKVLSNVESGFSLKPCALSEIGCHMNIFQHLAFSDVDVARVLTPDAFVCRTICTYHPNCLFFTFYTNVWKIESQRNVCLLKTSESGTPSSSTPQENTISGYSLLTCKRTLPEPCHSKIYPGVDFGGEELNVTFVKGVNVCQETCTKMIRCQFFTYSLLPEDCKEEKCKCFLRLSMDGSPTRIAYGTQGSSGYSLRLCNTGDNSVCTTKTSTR
# number only, unit nM dropped from output

>  <compound>
Nc1ccc2cc(NC(=O)[C@@H]3CC[C@@H]4CC(c5c(-n6cnnn6)ccc(Cl)c5F)=CC(=O)N43)ccc2n1

>  <subjectOfTest>
human plasma kallikrein (Homo sapiens, UniProt P03952)

>  <unitSpec>
nM

>  <IC50>
14.3

$$$$

Lookup: Look at this compound and give its reported IC50. Cn1nc2ccc(NC(=O)C3CCC4CC(c5c(-n6cc(Cl)nn6)ccc(Cl)c5F)=CC(=O)N43)cc2n1 (stereo not shown)
Found: 120

Lookup: Follow-up item: O=C(Nc1ccc(-c2noc(=O)[nH]2)cc1)[C@@H]1CC[C@@H]2CC(c3c(-n4cnnn4)ccc(Cl)c3F)=CC(=O)N21
Found: 60.1

Lookup: Follow-up item: C[C@H]1C[C@@H](C(=O)Nc2ccc3nccnc3c2)N2C(=O)C=C(c3c(-n4cnnn4)ccc(Cl)c3F)C[C@@H]12 (single isomer, unassigned)
Found: 7.5

Lookup: Follow-up item: O=C(Nc1ccc(-c2ncc[nH]2)cc1)[C@@H]1CCC2CC(c3c(-n4cnnn4)ccc(Cl)c3F)=CC(=O)N21 (mixture of isomers)
Found: 40.7

Lookup: Follow-up item: NC(=O)c1c(F)cc(NC(=O)[C@@H]2CCC3CC(c4c(-n5cnnn5)ccc(Cl)c4F)=CC(=O)N32)cc1F (mixture of isomers)
Found: 204

Lookup: Follow-up item: O=C(Nc1ccc(-n2ccnn2)cc1)[C@@H]1CCC2CC(c3c(-n4cnnn4)ccc(Cl)c3F)=CC(=O)N21 (mixture of isomers)
Found: 86.3

Lookup: Follow-up item: O=C(Nc1ccc(-c2nc(=O)o[nH]2)c(F)c1)[C@@H]1CCC2CC(c3c(-n4cnnn4)ccc(Cl)c3F)=CC(=O)N21 (mixture of isomers) [ID No. 42]
Found: 10

Lookup: Follow-up item: O=C(Nc1ccc(-c2cnn[nH]2)cc1)[C@@H]1CCC2CC(c3c(-n4cnnn4)ccc(Cl)c3F)=CC(=O)N21 (mixture of isomers)
Found: 47.1

Lookup: Follow-up item: O=C(O)c1[nH]c2ccc(NC(=O)[C@@H]3CCC4CC(c5c(-n6cnnn6)ccc(Cl)c5F)=CC(=O)N43)cc2c1F (mixture of isomers)
Found: 60.4

Lookup: Follow-up item: O=C(Nc1ccc2nc[nH]c(=O)c2c1)[C@@H]1CC[C@@H]2CC(c3c(-n4cnnn4)ccc(Cl)c3F)=CC(=O)N21
Found: 9.2

Lookup: Follow-up item: O=C(Nc1ccc(-c2nc(=O)o[nH]2)c(F)c1)[C@@H]1CC[C@H]2CC(c3c(-n4cnnn4)ccc(Cl)c3F)=CC(=O)N21 (single isomer, unassigned)
Found: 8.8

Lookup: Follow-up item: O=C(Nc1ccc2nn(C(F)F)cc2c1)[C@@H]1CCC2CC(c3c(-n4cnnn4)ccc(Cl)c3F)=CC(=O)N21 (single isomer, unassigned)
Found: 19.3

###

The compounds below have reported pIC50 for Factor XIa (Homo sapiens, UniProt P03951).
Entry type: numeric. Quantity: pIC50, the -log10 of concentration in molar units.

>  <compound>
O=C(Nc1ccc(-n2ccnn2)cc1)[C@@H]1CCC2CC(c3c(-n4cnnn4)ccc(Cl)c3F)=CC(=O)N21 (mixture of isomers)

>  <reportedMetric>
pIC50

>  <reported>
7.67

$$$$
>  <compound>
NC(=O)c1ccc(NC(=O)[C@@H]2CC[C@@H]3CC(c4cc(Cl)ccc4-n4cc(C(F)(F)F)nn4)=CC(=O)N32)cc1F

>  <reportedMetric>
pIC50

>  <reported>
7.55

$$$$
>  <compound>
O=C(Nc1ccc2nc[nH]c2c1)[C@@H]1CCC2CC(c3c(-n4cnnn4)ccc(Cl)c3F)=CC(=O)N21 (mixture of isomers)

>  <reportedMetric>
pIC50

>  <reported>
7.95

$$$$

Lookup: Look at this compound and give its reported pIC50. O=C(O)c1c(F)cc(NC(=O)[C@@H]2CCC3CC(c4c(-n5cnnn5)ccc(Cl)c4F)=CC(=O)N32)cc1F (mixture of isomers)
Found: 8.24

Lookup: Follow-up item: O=C(Nc1ccc2ncoc2c1)[C@@H]1CCC2CC(c3c(-n4cnnn4)ccc(Cl)c3F)=CC(=O)N21 (mixture of isomers)
Found: 7.94

Lookup: Follow-up item: C[C@@H](O)c1cnc2cc(NC(=O)[C@@H]3CCC4CC(c5c(-n6cnnn6)ccc(Cl)c5F)=CC(=O)N43)ccc2n1 (relative stereo)
Found: 8.30

Lookup: Follow-up item: O=C(Nc1ccc(-c2nc(=O)o[nH]2)c(F)c1)[C@@H]1CC[C@H]2CC(c3c(-n4cnnn4)ccc(Cl)c3F)=CC(=O)N21 (single isomer, unassigned)
Found: 9.40

Lookup: Follow-up item: COCCn1cc2cc(NC(=O)C3CCC4CC(c5c(-n6cnnn6)ccc(Cl)c5F)=CC(=O)N43)ccc2n1 (single isomer, unassigned)
Found: 8.22

Lookup: Follow-up item: Cn1cc2cc(NC(=O)[C@@H]3CC[C@@H]4CC(c5c(-n6cnnn6)ccc(Cl)c5F)=CC(=O)N43)ccc2n1
Found: 7.40

Lookup: Follow-up item: O=C(O)c1ccc(NC(=O)[C@@H]2CCC3CC(c4c(-n5cnnn5)ccc(Cl)c4F)=CC(=O)N32)cc1F (mixture of isomers)
Found: 8.92
